Cited source: patent US20250074911A1

molecular target: BTK T316A (Homo sapiens (Human), UniProt Q06187, T316A); experiment: Binding kinetics measurements (Surface Plasmon Resonance) on BTK T316A; conditions: target residence time, SPR
Sequence (Q06187 whole entry T316A): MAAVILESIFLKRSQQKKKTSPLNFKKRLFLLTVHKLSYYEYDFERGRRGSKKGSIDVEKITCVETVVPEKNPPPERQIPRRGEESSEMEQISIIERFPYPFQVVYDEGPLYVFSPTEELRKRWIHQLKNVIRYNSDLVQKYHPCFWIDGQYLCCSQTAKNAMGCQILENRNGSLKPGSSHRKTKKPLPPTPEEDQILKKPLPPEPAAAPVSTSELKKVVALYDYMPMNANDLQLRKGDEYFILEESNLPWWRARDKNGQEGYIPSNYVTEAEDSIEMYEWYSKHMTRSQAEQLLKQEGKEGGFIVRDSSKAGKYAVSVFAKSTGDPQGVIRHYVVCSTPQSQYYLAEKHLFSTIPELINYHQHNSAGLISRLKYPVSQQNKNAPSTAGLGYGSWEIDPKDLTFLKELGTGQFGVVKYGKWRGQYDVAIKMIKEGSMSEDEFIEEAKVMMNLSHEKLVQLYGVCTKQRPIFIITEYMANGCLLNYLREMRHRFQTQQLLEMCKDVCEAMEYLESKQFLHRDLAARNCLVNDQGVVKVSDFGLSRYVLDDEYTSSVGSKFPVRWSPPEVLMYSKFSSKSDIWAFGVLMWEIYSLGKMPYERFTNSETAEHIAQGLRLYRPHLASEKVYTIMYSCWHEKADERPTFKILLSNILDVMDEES
readout kind: Tau (h) BTK T316A (Act)

Worked examples follow.
C[C@@H]1CCn2nc(-c3ccc(C(=O)Nc4cc(C(F)(F)F)ccn4)cc3)c3c(N)ncc(c32)/C=C/CO[C@H](C)C(=O)N1 [Example 57] :: 2.06
CN1C/C=C/c2cnc(N)c3c(-c4ccc(C(=O)Nc5cc(C(F)(F)F)ccn5)cc4)nn(c23)[C@@H]2CCC[C@H](C2)NC(=O)CC1 [Example 17] :: 3.60
CN1C/C=C/c2cnc(N)c3c(-c4ccc(C(=O)Nc5cc(C(F)(F)F)ccn5)cc4)nn(c23)[C@@H]2CCC[C@H](C2)NC(=O)CCC1 [Example 10] :: 1.76
Nc1ncc2c3c1c(-c1ccc(C(=O)Nc4cc(C(F)(F)F)ccn4)cc1F)nn3[C@@H]1CCC[C@H](C1)NC(=O)CNC/C=C/2 [Example 8] :: 1.30

A: Nc1ncc2c3c1c(-c1ccc(C(=O)Nc4cc(C(F)(F)F)ccn4)cc1)nn3[C@@H]1CC[C@H](C1)NC(=O)CCCCC/C=C/2 [Example 168]
B: Nc1ncc2c3c1c(-c1ccc(C(=O)Nc4cc(C(F)(F)F)ccn4)cc1)nn3[C@@H]1CCC[C@H](C1)NC(=O)[C@@H]1CCN(C/C=C/2)C1 [Example 147]
**Q:** For the pair A and B , which member has the lower Tau (h) BTK T316A (Act) number? Reply briefly: the label of your chosen item.
**A:** A
(A: 3.81 h, B: 10.42 h)
